System: Fam108b (ABHD17B) serine hydrolase [Mus musculus]
Measurement notes: Fam108b hydrolase inhibitors in membrane proteome – cell lysate, gel-based competitive ABPP, full-length membrane form, powders, SAR follow-up (AID 588585)
Experimental context: competitive ABPP FP-Rh gel, at 5 µM, hits give high values
Reported property: inhibition (%)
Give bare numbers, in %.

Example entries and their recorded answers appear below.
Cc1ccc(-c2csc3cc(-c4ccc(Br)cc4)oc(=O)c23)cc1: 0
Fc1ccccc1-c1nc2scc(-c3cccs3)c2c(=S)s1: 0
O=c1[nH]c(=O)c2c(-c3ccccc3)csc2[nH]1: 0

List the reported inhibition of each molecule below.
1. O=c1[nH]c(=S)[nH]c2scc(-c3cccs3)c12
2. O=c1[nH]c(=S)[nH]c2scc(-c3ccccc3)c12
3. Cc1ccc(C2NC(=O)c3c(sc4c3CCCC4)N2)cc1 (centres undefined)

Response:
1: 0; 2: 0; 3: 0

List the reported inhibition of each molecule below.
1. COc1ccc(C2NC(=O)c3c(sc(C)c3C)N2)cc1 (centres undefined)
2. O=c1[nH]c(-c2ccccc2)nc2scc(-c3ccccc3)c12
3. O=c1[nH]c(-c2cccs2)nc2scc(-c3ccccc3)c12
4. O=c1[nH]c(-c2ccccc2)nc2scc(-c3cccs3)c12
5. CC(C)(C)c1nc2scc(-c3ccccc3)c2c(=S)s1
6. COc1ccc(-c2csc3cc(-c4ccccc4Cl)oc(=O)c23)cc1
7. O=c1oc(-c2ccco2)cc2scc(-c3ccc(Br)cc3)c12

Response:
1. 0
2. 0
3. 0
4. 0
5. 0
6. 0
7. 0

Prompt: Write down measured inhibition (Fam108b (ABHD17B) serine hydrolase [Mus musculus]) for this molecule. O=c1c2c(-c3ccccc3)csc2ncn1Cc1ccccc1
Response: 0
